System: CcpA (Lactococcus lactis N8), ORF:ea67f8fe
Sequence: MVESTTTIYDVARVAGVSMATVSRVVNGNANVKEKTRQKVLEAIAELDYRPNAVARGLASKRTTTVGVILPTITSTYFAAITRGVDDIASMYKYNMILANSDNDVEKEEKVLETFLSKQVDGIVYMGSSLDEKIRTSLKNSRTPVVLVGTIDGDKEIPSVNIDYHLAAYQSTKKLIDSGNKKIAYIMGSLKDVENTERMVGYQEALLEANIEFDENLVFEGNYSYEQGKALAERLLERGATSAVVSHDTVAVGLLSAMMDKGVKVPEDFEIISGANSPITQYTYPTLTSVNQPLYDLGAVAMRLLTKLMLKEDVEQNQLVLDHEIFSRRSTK
Test: MST
Conditions: MST: Cy5-DNA 375 nM stock (10 uL per tube), CcpA from 15 uM in 16 two-fold dilutions; assay buffer, salt, pH and temperature not stated (protein purified in …)

[
  {
    "SEQUENCE_TEXT": "AGCCAGTGGCGATAAGTACGATAAAATATTTAAAAGTCTATATATACCAAGGAAGAAAACGCTTTAAATTTTTGTAAATTATTAGAAATAATGATAG (double strand) [N8-1-cre]",
    "Kd (nM)": 44
  }
]
